biological target: CXCR7 (Homo sapiens, UniProt P25106); construct: host or cells: CHO (PathHunter CHO-CXCR7 β-arrestin cells); assay: CXCR7 β-arrestin recruitment assay (PathHunter CHO-CXCR7, DiscoverX), agonistic assay; assay type: cell-based; conditions: agonistic assay; CHO CXCR7 β-arrestin cells; 90 min at 37° C.; chemiluminescence; read-out: β-Arrestin EC50
Sequence (P25106 whole entry): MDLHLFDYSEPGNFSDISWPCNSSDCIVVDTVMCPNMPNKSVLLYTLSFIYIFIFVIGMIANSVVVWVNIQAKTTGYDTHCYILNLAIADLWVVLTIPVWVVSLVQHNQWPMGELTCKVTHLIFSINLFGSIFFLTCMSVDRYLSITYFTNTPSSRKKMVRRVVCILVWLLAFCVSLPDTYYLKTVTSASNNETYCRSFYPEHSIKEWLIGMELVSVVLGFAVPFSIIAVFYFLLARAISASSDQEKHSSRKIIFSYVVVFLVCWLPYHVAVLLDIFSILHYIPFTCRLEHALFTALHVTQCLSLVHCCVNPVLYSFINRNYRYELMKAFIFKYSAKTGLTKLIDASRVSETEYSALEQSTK
Non-standard residues stand in square brackets, D forms with d. Residues, ends and D or L forms follow the SMILES beside them. dPro(cis-4-NH2) = N[C@H]1CN[C@@H](C(=O)O)C1; hArg = N=C(N)NCCCC[C@H](N)C(=O)O; Tic = O=C(O)[C@@H]1Cc2ccccc2CN1; aThr = C[C@H](O)[C@H](N)C(=O)O; Agb = N=C(N)NCC[C@H](N)C(=O)O
Flag rule - EC50 less than 400 nM flags fulfilled; the remaining entries get not fulfilled.

molecule="CC[C@H](C)[C@@H]1NC(=O)[C@H]([C@H](C)O)NC(=O)[C@H]2CCCN2C(=O)[C@H](Cc2c[nH]c3ccccc23)NC(=O)[C@H](CCCNC(=N)N)NC(=O)[C@@H](CCCNC(=N)N)NC1=O [compound 9, cyclo(-Ile-^DArg-Arg-Trp-^DPro-alloThr-)] (cyclo(I[dR]RW[dP][aThr]))" assigned_label=fulfilled

Prompt line: Say whether its EC50 is strictly beneath 400 nM. Entry: N=C(N)NCCC[C@@H]1NC(=O)[C@H](Cc2c[nH]c3ccccc23)NC(=O)[C@@H](Cc2ccccc2)NC(=O)[C@H](CCNC(=N)N)NC(=O)[C@@H]2Cc3ccccc3CN2C(=O)[C@H]2C[C@@H](N)CN2C1=O [compound 36] (cyclo([Agb][dF]WR[dPro(cis-4-NH2)][Tic]))
Response line: not fulfilled

Prompt line: Same lookup for N=C(N)NCCCC[C@@H]1NC(=O)[C@H](Cc2c[nH]c3ccccc23)NC(=O)[C@@H](Cc2ccccc2)NC(=O)[C@H](CCCNC(=N)N)NC(=O)[C@@H]2Cc3ccccc3CN2C(=O)[C@H]2C[C@@H](N)CN2C1=O [compound 39] (cyclo(R[dF]W[hArg][dPro(cis-4-NH2)][Tic])) , please.
Response line: fulfilled
